The values you see were collected from patent US20080171740A1.

List of pIC50 values.
Tested on: HIV-1 IIIB strain, T-tropic (CXCR4 utilizing)
Test: HOS HIV-1 infectivity assay
Assay type: cell-based
Conditions: Human immunodeficiency virus 1, IIIB; HOS HIV anti-infectivity assay; strain not named in Table 2; read-out: Activity Level
pIC50: −log10 of the molar value.

compound	target-or-test-system	pIC50
CN1CCN(c2cccc3nc(CN(CCCCN)C4CCCc5cccnc54)cn23)CC1 (stereo not drawn)	HIV-1 IIIB strain, T-tropic (CXCR4 utilizing)	> 7.00
NCCCCN(Cc1cn2c(Cl)cccc2n1)C1CCCc2cccnc21 (stereo not drawn)	HIV-1 IIIB strain, T-tropic (CXCR4 utilizing)	> 7.00
CN1CCN(c2cccc3nc(CN(Cc4ccncc4)[C@H]4CCCc5cccnc54)c(CO)n23)CC1	HIV-1 IIIB strain, T-tropic (CXCR4 utilizing)	> 7.00
NCCCCN(Cc1cn2cc(C(F)(F)F)ccc2n1)C1CCCc2cccnc21 (stereo not drawn)	HIV-1 IIIB strain, T-tropic (CXCR4 utilizing)	6.30 to 7.00
CN1CCN(c2cccc3nc(CN(Cc4ccncc4)[C@H]4CCCc5cccnc54)cn23)CC1	HIV-1 IIIB strain, T-tropic (CXCR4 utilizing)	> 7.00
NCCCCN(Cc1cn2c(N3CCOCC3)cccc2n1)C1CCCc2cccnc21 (stereo not drawn)	HIV-1 IIIB strain, T-tropic (CXCR4 utilizing)	> 7.00
Cc1cc(Br)cn2cc(CN(CCCCN)C3CCCc4cccnc43)nc12 (stereo not drawn)	HIV-1 IIIB strain, T-tropic (CXCR4 utilizing)	6.30 to 7.00
Cc1c(Br)ccc2nc(CN(CCCCN)C3CCCc4cccnc43)cn12 (stereo not drawn)	HIV-1 IIIB strain, T-tropic (CXCR4 utilizing)	> 7.00
N#Cc1ccc2nc(CN(CCCCN)C3CCCc4cccnc43)cn2c1 (stereo not drawn)	HIV-1 IIIB strain, T-tropic (CXCR4 utilizing)	6.30 to 7.00
Cc1ccc2nc(CN(CCCCN)C3CCCc4cccnc43)cn2c1 (stereo not drawn)	HIV-1 IIIB strain, T-tropic (CXCR4 utilizing)	> 7.00
NCCCCN(Cc1cn2c(N)cccc2n1)C1CCCc2cccnc21 (stereo not drawn)	HIV-1 IIIB strain, T-tropic (CXCR4 utilizing)	> 7.00
CN1CCN(c2cccc3nc(CN(Cc4ccccn4)[C@H]4CCCc5cccnc54)c(CO)n23)CC1	HIV-1 IIIB strain, T-tropic (CXCR4 utilizing)	> 7.00
NCCCCN(Cc1cn2c(N3CCNCC3)cccc2n1)C1CCCc2cccnc21 (stereo not drawn)	HIV-1 IIIB strain, T-tropic (CXCR4 utilizing)	> 7.00
NCCCN(Cc1cn2ccccc2n1)C1CCCc2cccnc21 (stereo not drawn)	HIV-1 IIIB strain, T-tropic (CXCR4 utilizing)	5.00 to 6.30
NCCCCN(Cc1cn2cc(F)ccc2n1)C1CCCc2cccnc21 (stereo not drawn)	HIV-1 IIIB strain, T-tropic (CXCR4 utilizing)	> 7.00
NCCCCN(Cc1cn2c(C(F)(F)F)cccc2n1)C1CCCc2cccnc21 (stereo not drawn)	HIV-1 IIIB strain, T-tropic (CXCR4 utilizing)	> 7.00
CN1CCN(c2cccc3nc(CN(Cc4ccccc4N(C)C)[C@H]4CCCc5cccnc54)cn23)CC1	HIV-1 IIIB strain, T-tropic (CXCR4 utilizing)	> 7.00
NCCN(Cc1cn2ccccc2n1)C1CCCc2cccnc21 (stereo not drawn)	HIV-1 IIIB strain, T-tropic (CXCR4 utilizing)	5.00 to 6.30
